# Tgt: biotinylated histone H3 peptide trimethylated at lysine 27, H3K27me3 (21-44) (UniProt P68431 22-45, trimethyl-lysine at K27; biotinylated)
# Assay Name: peptide microspot array; apparent Kd; 50 uM H3K27me3; replicate 1
Reported Endpoint: Kd (µM)
Report only the number, with the unit µM understood.

What value of Kd has been recorded for this entry: PcTF, monovalent Polycomb-based transcription factor (pET28 construct, purified from E. coli) (designed binder) MELSAVGERVFAAEALLKRRIRKGRMEYLVKWKGWSQKYSTWEPEENILDARLLAAFEERER
3.5
